assay: recombinant UMI read abundance after kanamycin selection (control-corrected) (log10(CPM+1)); higher = more efficient recombination; extreme values may be limits of the assay; sequences stand for … in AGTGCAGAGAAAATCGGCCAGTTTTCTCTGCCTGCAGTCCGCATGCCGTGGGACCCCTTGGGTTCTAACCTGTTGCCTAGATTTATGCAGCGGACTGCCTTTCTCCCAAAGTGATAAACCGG…AGGTTGGTTTCACT; site = the 11-nt donor;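 further: IS621 bridge recombinase in Escherichia coli cells against a fixed T5 target plasmid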
Please enter fulfilled where recombinant UMI read abundance (log10) is greater than or equal to 0.3, and not fulfilled where it is lower.

# bool: recombinant UMI read abundance (log10) of ACTAATACATGGACCGGTTTTCCCGGTAATCCGTATTTGGC (site ACTAATACTGC) >= 0.3
fulfilled

Textbook exercise: given the entry ACGAGGTCATGGACCGGTTTTCCCGGTAATCCGTATTTGAC (site ACGAGGTCTGT) , state whether its recombinant UMI read abundance (log10) is greater than or equal to 0.3.
fulfilled

Dear colleague, could you confirm whether TCGAATACATGGACCGGTTTTCCCGGTAATCCGTATTTGCA (site TTGAATACTTG) has recombinant UMI read abundance (log10) at or above 0.3?
not fulfilled

# bool: recombinant UMI read abundance (log10) of GATTATCCATGGACCGGTTTTCCCGGTAATCCGTATTTGCT (site GAATATCCTAG) >= 0.3
not fulfilled

Entry CGGAATCCATGGACCGGTTTTCCCGGTAATCCGTATTTGCT (site CGGAATCCTAG) : is its recombinant UMI read abundance (log10) no less than 0.3?
fulfilled

Please tell me: is the sequence CTTCACACATGGACCGGTTTTCCCGGTAATCCGTATTTGTA (site CTTCACACTTA) at or over 0.3 in terms of recombinant UMI read abundance (log10)?
fulfilled

Does AGTACACCATGGACCGGTTTTCCCGGTAATCCGTATTTGAG (site AGTACACCTCT) have a reported recombinant UMI read abundance (log10) of at least 0.3?
not fulfilled

Tell me whether recombinant UMI read abundance (log10) is at least 0.3 here: GTGCTCACATGGACCGGTTTTCCCGGTAATCCGTATTTGAT (site GCGCTCACTAT)
fulfilled

Hi team, for TAACTTCCATGGACCGGTTTTCCCGGTAATCCGTATTTGCA (site TAACTTCCTTG) , is the recorded recombinant UMI read abundance (log10) at or above 0.3?
fulfilled
